- Test system: biotinyl-Ile-oxazolone
- experimentNotes: self-aminoacylation, catalytic enhancement (BIO) (fold over background); higher = more active; k-Seq, kA / k0A0; sequences stand for … in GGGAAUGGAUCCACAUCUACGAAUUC…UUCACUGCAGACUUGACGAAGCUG
Variants at the floor of the assay were thinned out.
propertyName: self-aminoacylation

>>> df
                             sequencestring  reading
0  AUCACCCUAGUCAUCGAGUGA [Fam2.1 aminoacylation ribozyme variant]     4.35
1  CAGUUUGCUAUUAGUCGCAAG [Fam3.1 aminoacylation ribozyme variant]     1.24
2  AUUCAGCUAGGUCAUCGAGUG [Fam2.2 aminoacylation ribozyme variant]     2.01
3  AAGUUUGCUAAUAGUGGUAAG [Fam3.1 aminoacylation ribozyme variant]    0.992
4  AUUCACCCAGAUCAUCGGGUG [Fam2.2 aminoacylation ribozyme variant]     1.85
5  CCACUCUUCAAGCAAUCGAUC [Fam1B.1 aminoacylation ribozyme variant]    0.542
6  CCACACUUCAAGCUAUCGGAC [Fam1B.1 aminoacylation ribozyme variant]    0.982
7  AUUCACCCAGGUCAGCGGGUG [Fam2.2 aminoacylation ribozyme variant]     2.93
8  AUGGACCUAGGUCAUCGGGUG [Fam2.2 aminoacylation ribozyme variant]     3.46

Hello, the source for this data is the supplement of paper PMC9233669, in case you need it.
